molecular target: Cytochrome P450 1A2 (Homo sapiens) (UniProt P05177); test: p450-cyp1a2 (AID 410); settings: recombinant CYP1A2, luciferin-ME demethylation, luminescence; series mostly up to 11.4 µM
Sequence (P05177 whole entry, looked up): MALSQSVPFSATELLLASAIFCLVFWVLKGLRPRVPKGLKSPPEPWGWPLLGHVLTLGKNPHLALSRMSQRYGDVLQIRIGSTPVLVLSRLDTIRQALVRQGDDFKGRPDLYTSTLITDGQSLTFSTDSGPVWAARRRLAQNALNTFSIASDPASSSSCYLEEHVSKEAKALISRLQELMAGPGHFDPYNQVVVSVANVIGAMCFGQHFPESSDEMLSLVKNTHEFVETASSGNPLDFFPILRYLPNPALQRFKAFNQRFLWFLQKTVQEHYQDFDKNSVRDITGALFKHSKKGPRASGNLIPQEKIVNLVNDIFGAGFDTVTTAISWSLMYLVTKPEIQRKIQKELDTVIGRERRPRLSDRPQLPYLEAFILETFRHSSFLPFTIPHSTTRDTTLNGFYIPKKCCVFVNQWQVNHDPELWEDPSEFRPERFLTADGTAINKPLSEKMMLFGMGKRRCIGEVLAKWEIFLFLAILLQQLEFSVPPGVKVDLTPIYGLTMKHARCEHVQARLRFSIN
Results filed as inconclusive are left out. The source made the active and inactive calls. Calls come from the whole dose curve.
Please answer using one outcome listed in active, inactive

Reference set (2 entries):
{"columns": ["SMILES NOTATION", "CATEGORY"],
 "data": [
  ["CC(C)C[C@@H](N)C(=O)Nc1ccc2ccccc2c1", "active"],
  ["O=C(O)Cc1cccnc1", "inactive"]
]}

Prompt line: Status in this test for Cn1cnc([N+](=O)[O-])c1SCC(=O)O ?
Response line: inactive
